Molecular target: Gal(a1-3)Gal(b1-3)GlcNAc(b1-2)Man
Assay: glycan array binding signal (z-score within array); higher = stronger binding
Conditions: glycan notation: IUPAC condensed, linker removed
Shown is part of a subset that was picked to be rich in the strongest signals.
Measured glycan array binding signal (z-score) by item
Number only, no unit.

BINDER	TEST_RESULT
CPA (Cicer arietinum) (protein) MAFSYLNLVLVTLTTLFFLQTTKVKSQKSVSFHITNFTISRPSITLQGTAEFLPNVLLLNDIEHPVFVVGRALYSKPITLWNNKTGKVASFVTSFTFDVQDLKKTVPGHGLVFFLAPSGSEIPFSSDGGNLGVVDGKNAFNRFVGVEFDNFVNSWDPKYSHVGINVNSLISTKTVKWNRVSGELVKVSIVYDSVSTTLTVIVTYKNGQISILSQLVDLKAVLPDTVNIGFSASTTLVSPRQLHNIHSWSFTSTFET	-0.562

q: Value lookup for glycan array binding signal (z-score); key = OrysaEULS2 (Oryza sativa) (protein) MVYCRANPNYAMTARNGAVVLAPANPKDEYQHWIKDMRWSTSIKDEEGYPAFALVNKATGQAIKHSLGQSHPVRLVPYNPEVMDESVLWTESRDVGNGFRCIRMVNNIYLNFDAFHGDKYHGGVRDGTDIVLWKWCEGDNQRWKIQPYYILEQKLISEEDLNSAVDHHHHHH
a: -0.28

q: What would you report for EULS2 M1 (Oryza sativa) (protein) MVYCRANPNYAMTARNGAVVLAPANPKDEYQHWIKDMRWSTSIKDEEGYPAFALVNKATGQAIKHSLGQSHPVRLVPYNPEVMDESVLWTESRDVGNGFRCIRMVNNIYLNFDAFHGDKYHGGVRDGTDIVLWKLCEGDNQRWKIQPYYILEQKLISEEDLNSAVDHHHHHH ?
a: -0.609

q: What would you report for cFel (Cyprinus carpio), P68512 (protein) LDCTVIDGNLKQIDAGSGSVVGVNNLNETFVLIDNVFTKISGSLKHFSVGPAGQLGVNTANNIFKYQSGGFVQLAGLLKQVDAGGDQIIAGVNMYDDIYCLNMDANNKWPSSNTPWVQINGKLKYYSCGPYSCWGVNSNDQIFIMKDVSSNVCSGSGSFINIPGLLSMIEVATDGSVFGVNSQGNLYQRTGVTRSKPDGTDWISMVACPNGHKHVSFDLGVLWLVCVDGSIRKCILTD ?
a: 0.809

q: What would you report for LlpB (Pseudomonas fluorescens) (protein) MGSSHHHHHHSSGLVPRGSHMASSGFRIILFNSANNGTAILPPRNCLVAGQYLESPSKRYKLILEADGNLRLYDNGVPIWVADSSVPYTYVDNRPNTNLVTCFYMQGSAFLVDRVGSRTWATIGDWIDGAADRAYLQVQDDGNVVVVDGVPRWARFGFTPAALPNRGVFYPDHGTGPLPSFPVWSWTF ?
a: 0.466

q: What would you report for SP15308F-bth-333-19-333 (Bacteroides thetaiotaomicron) (protein) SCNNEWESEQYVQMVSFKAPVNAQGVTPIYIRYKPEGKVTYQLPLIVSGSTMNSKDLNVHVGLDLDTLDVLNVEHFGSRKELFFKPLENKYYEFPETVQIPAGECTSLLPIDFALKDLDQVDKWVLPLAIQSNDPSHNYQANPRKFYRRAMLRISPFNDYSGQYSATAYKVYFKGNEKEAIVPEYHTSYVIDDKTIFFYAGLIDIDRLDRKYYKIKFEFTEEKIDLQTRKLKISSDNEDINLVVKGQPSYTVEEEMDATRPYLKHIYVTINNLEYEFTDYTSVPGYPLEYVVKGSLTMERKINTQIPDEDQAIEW ?
a: 0.13

Where do the numbers come from? From the supplement of paper PMC8728848.
